Assay: Pharmacokinetic profile of netupitant in humans after a single oral dose
Assay type: in vivo
Conditions: human, plasma; 300 mg oral, healthy volunteers, mean, N = 4
READOUT_KIND: AUC(0-inf) (ng·h/mL)
Enter your answer as a number in ng·h/mL; do not include the unit.

input: State the recorded AUC(0-inf) for this entry: Cc1ccccc1-c1cc(N2CCN(C)CC2)ncc1N(C)C(=O)C(C)(C)c1cc(C(F)(F)F)cc(C(F)(F)F)c1
output: 25200

###

Assay: Pharmacokinetic profile of netupitant in humans after a single oral dose
Format: in vivo
Conditions: human, plasma; 100 mg oral, healthy volunteers, mean, N = 4
READOUT_KIND: Cmax (ng/mL)
Enter your answer as a number in ng/mL; do not include the unit.

input: State the recorded Cmax for this entry: Cc1ccccc1-c1cc(N2CCN(C)CC2)ncc1N(C)C(=O)C(C)(C)c1cc(C(F)(F)F)cc(C(F)(F)F)c1 [netupitant]
output: 168

###

Experiment: Pharmacokinetic profile of netupitant in humans after a single oral dose
Assay type: in vivo
Details: 30 mg oral, healthy volunteers, mean, N = 4
READOUT_KIND: Kel (h⁻¹)
Enter your answer as a number in h⁻¹; do not include the unit.

input: State the recorded Kel for this entry: Cc1ccccc1-c1cc(N2CCN(C)CC2)ncc1N(C)C(=O)C(C)(C)c1cc(C(F)(F)F)cc(C(F)(F)F)c1
output: 0.027

###

Assay: Pharmacokinetic profile of netupitant in humans after a single oral dose
Format: in vivo
Conditions: human, plasma; 10 mg oral, healthy volunteers, mean, N = 4
READOUT_KIND: Tmax (h)
Enter your answer as a number in h; do not include the unit.

input: State the recorded Tmax for this entry: Cc1ccccc1-c1cc(N2CCN(C)CC2)ncc1N(C)C(=O)C(C)(C)c1cc(C(F)(F)F)cc(C(F)(F)F)c1
output: 5.75

###

Experiment: Pharmacokinetic profile of netupitant in humans after a single oral dose
Format: in vivo
Conditions: human, plasma; 100 mg oral, healthy volunteers, mean, N = 4
READOUT_KIND: half-life (h)
Enter your answer as a number in h; do not include the unit.

input: State the recorded half-life for this entry: Cc1ccccc1-c1cc(N2CCN(C)CC2)ncc1N(C)C(=O)C(C)(C)c1cc(C(F)(F)F)cc(C(F)(F)F)c1 [netupitant]
output: 54.2

###

Test: Pharmacokinetic profile of netupitant in humans after a single oral dose
Type: in vivo
Settings: human, plasma; 30 mg oral, healthy volunteers, mean, N = 4
READOUT_KIND: half-life (h)
Enter your answer as a number in h; do not include the unit.

input: State the recorded half-life for this entry: Cc1ccccc1-c1cc(N2CCN(C)CC2)ncc1N(C)C(=O)C(C)(C)c1cc(C(F)(F)F)cc(C(F)(F)F)c1 [netupitant]
output: 29.1

###

Experiment: Pharmacokinetic profile of netupitant in humans after a single oral dose
Type: in vivo
Conditions: 450 mg oral, healthy volunteers, mean, N = 4
Procedure: The pharmacokinetic profile of netupitant (N) in humans was examined in a randomised, double-blind, placebo controlled study comprising 5 dose groups (10, 30, 100, 300 and 450 mg) with 6 subjects in each group, of whom four received netupitant and two received placebo.
READOUT_KIND: Kel (h⁻¹)
Enter your answer as a number in h⁻¹; do not include the unit.

input: State the recorded Kel for this entry: Cc1ccccc1-c1cc(N2CCN(C)CC2)ncc1N(C)C(=O)C(C)(C)c1cc(C(F)(F)F)cc(C(F)(F)F)c1
output: 0.0124

###

Assay: Pharmacokinetic profile of netupitant in humans after a single oral dose
Assay type: in vivo
Details: human, plasma; 100 mg oral, healthy volunteers, mean, N = 4
Experimental: The pharmacokinetic profile of netupitant (N) in humans was examined in a randomised, double-blind, placebo controlled study comprising 5 dose groups (10, 30, 100, 300 and 450 mg) with 6 subjects in each group, of whom four received netupitant and two received placebo.
READOUT_KIND: AUC(0-inf) (ng·h/mL)
Enter your answer as a number in ng·h/mL; do not include the unit.

input: State the recorded AUC(0-inf) for this entry: Cc1ccccc1-c1cc(N2CCN(C)CC2)ncc1N(C)C(=O)C(C)(C)c1cc(C(F)(F)F)cc(C(F)(F)F)c1 [netupitant]
output: 4800

###

Test: Pharmacokinetic profile of netupitant in humans after a single oral dose
Format: in vivo
Conditions: 100 mg oral, healthy volunteers, mean, N = 4
READOUT_KIND: Kel (h⁻¹)
Enter your answer as a number in h⁻¹; do not include the unit.

input: State the recorded Kel for this entry: Cc1ccccc1-c1cc(N2CCN(C)CC2)ncc1N(C)C(=O)C(C)(C)c1cc(C(F)(F)F)cc(C(F)(F)F)c1
output: 0.0139

###

Assay: Pharmacokinetic profile of netupitant in humans after a single oral dose
Type: in vivo
Conditions: human, plasma; 10 mg oral, healthy volunteers, mean, N = 4
READOUT_KIND: AUC(0-t) (ng·h/mL)
Enter your answer as a number in ng·h/mL; do not include the unit.

input: State the recorded AUC(0-t) for this entry: Cc1ccccc1-c1cc(N2CCN(C)CC2)ncc1N(C)C(=O)C(C)(C)c1cc(C(F)(F)F)cc(C(F)(F)F)c1
output: 140

###

Assay: Pharmacokinetic profile of netupitant in humans after a single oral dose
Type: in vivo
Settings: human, plasma; 30 mg oral, healthy volunteers, mean, N = 4; read-out: Vz/F
READOUT_KIND: Vd/F (L)
Enter your answer as a number in L; do not include the unit.

input: State the recorded Vd/F for this entry: Cc1ccccc1-c1cc(N2CCN(C)CC2)ncc1N(C)C(=O)C(C)(C)c1cc(C(F)(F)F)cc(C(F)(F)F)c1 [netupitant]
output: 1320

###

Assay: Pharmacokinetic profile of netupitant in humans after a single oral dose
Type: in vivo
Conditions: human, plasma; 450 mg oral, healthy volunteers, mean, N = 4; read-out: Vz/F
READOUT_KIND: Vd/F
Mention the unit after the number when you answer.

input: State the recorded Vd/F for this entry: Cc1ccccc1-c1cc(N2CCN(C)CC2)ncc1N(C)C(=O)C(C)(C)c1cc(C(F)(F)F)cc(C(F)(F)F)c1 [netupitant]
output: 881 L

###

Test: Pharmacokinetic profile of netupitant in humans after a single oral dose
Format: in vivo
Settings: human, plasma; 450 mg oral, healthy volunteers, mean, N = 4
READOUT_KIND: AUC(0-t) (ng·h/mL)
Enter your answer as a number in ng·h/mL; do not include the unit.

input: State the recorded AUC(0-t) for this entry: Cc1ccccc1-c1cc(N2CCN(C)CC2)ncc1N(C)C(=O)C(C)(C)c1cc(C(F)(F)F)cc(C(F)(F)F)c1 [netupitant]
output: 36600

###

Experiment: Pharmacokinetic profile of netupitant in humans after a single oral dose
Assay type: in vivo
Details: human, plasma; 10 mg oral, healthy volunteers, mean, N = 4
READOUT_KIND: Cmax (ng/mL)
Enter your answer as a number in ng/mL; do not include the unit.

input: State the recorded Cmax for this entry: Cc1ccccc1-c1cc(N2CCN(C)CC2)ncc1N(C)C(=O)C(C)(C)c1cc(C(F)(F)F)cc(C(F)(F)F)c1
output: 8.76

###

Test: Pharmacokinetic profile of netupitant in humans after a single oral dose
Type: in vivo
Settings: human, plasma; 300 mg oral, healthy volunteers, mean, N = 4
READOUT_KIND: half-life

input: State the recorded half-life for this entry: Cc1ccccc1-c1cc(N2CCN(C)CC2)ncc1N(C)C(=O)C(C)(C)c1cc(C(F)(F)F)cc(C(F)(F)F)c1 [netupitant]
output: 48.1 h

###

Experiment: Pharmacokinetic profile of netupitant in humans after a single oral dose
Assay type: in vivo
Conditions: human, plasma; 100 mg oral, healthy volunteers, mean, N = 4
READOUT_KIND: AUC(0-t)

input: State the recorded AUC(0-t) for this entry: Cc1ccccc1-c1cc(N2CCN(C)CC2)ncc1N(C)C(=O)C(C)(C)c1cc(C(F)(F)F)cc(C(F)(F)F)c1
output: 4360 ng·h/mL

###

Assay: Pharmacokinetic profile of netupitant in humans after a single oral dose
Assay type: in vivo
Settings: human, plasma; 300 mg oral, healthy volunteers, mean, N = 4
READOUT_KIND: Cmax (ng/mL)
Enter your answer as a number in ng/mL; do not include the unit.

input: State the recorded Cmax for this entry: Cc1ccccc1-c1cc(N2CCN(C)CC2)ncc1N(C)C(=O)C(C)(C)c1cc(C(F)(F)F)cc(C(F)(F)F)c1 [netupitant]
output: 747

###

Test: Pharmacokinetic profile of netupitant in humans after a single oral dose
Format: in vivo
Settings: human, plasma; 10 mg oral, healthy volunteers, mean, N = 4
Procedure: The pharmacokinetic profile of netupitant (N) in humans was examined in a randomised, double-blind, placebo controlled study comprising 5 dose groups (10, 30, 100, 300 and 450 mg) with 6 subjects in each group, of whom four received netupitant and two received placebo.
READOUT_KIND: AUC(0-inf) (ng·h/mL)
Enter your answer as a number in ng·h/mL; do not include the unit.

input: State the recorded AUC(0-inf) for this entry: Cc1ccccc1-c1cc(N2CCN(C)CC2)ncc1N(C)C(=O)C(C)(C)c1cc(C(F)(F)F)cc(C(F)(F)F)c1
output: 233
